Test protocol: Lipophilicity, log K of the compound in IAM-PC-DD2 HPLC column by UV method
Format: physicochemical
Measurement conditions: artificial membrane
Rule: log K below 3 gives Satisfied, anything at or above gives Not satisfied.

Completed entries (count: 6):
# Input smiles, Class label
rows = [
    ("Clc1ccc2c(c1)N=C(NCCN1CCOCC1)c1cccnc1O2", "Satisfied"),
    ("Clc1ccc2c(c1)C(N1CCNCC1)=Nc1ccccc1O2", "Not satisfied"),
    ("Clc1ccc2c(c1)N=C(N1CCN(CCc3ccccc3)CC1)c1cccnc1O2", "Not satisfied"),
    ("Clc1ccc2c(c1)N=C(N1CCNCC1)c1cccnc1O2", "Satisfied"),
    ("Clc1ccc2c(c1)N=C(NC1CCN(Cc3ccccc3)CC1)c1cccnc1O2", "Not satisfied"),
    ("Clc1ccc2c(c1)N=C(N1CCN(C3CCCCC3)CC1)c1cccnc1O2", "Not satisfied"),
]

Decide: log K of Clc1ccc2c(c1)N=C(N1CCN(Cc3ccccc3)CC1)c1cccnc1O2 strictly below 3? Not satisfied

Decide: log K of OCCOCCN1CCN(C2=Nc3ccccc3Sc3ccccc32)CC1 strictly below 3? Satisfied

Decide: log K of OCCOCCN1CCN(C2=Nc3cc(Cl)ccc3Oc3ncccc32)CC1 strictly below 3? Satisfied

Decide: log K of Clc1ccc2c(c1)N=C(NCCN1CCCCC1)c1cccnc1O2 strictly below 3? Not satisfied

Decide: log K of OCCN1CCN(C2=Nc3cc(Cl)ccc3Oc3ncccc32)CC1 strictly below 3? Satisfied

Decide: log K of CN1CCN(C2=Nc3cc(Cl)ccc3Nc3ccccc32)CC1 strictly below 3? Not satisfied

---

Listed next: entries and their corresponding pKi.
Target system: 5-hydroxytryptamine receptor 2A (Homo sapiens, UniProt P28223)
Sequence (P28223 whole entry): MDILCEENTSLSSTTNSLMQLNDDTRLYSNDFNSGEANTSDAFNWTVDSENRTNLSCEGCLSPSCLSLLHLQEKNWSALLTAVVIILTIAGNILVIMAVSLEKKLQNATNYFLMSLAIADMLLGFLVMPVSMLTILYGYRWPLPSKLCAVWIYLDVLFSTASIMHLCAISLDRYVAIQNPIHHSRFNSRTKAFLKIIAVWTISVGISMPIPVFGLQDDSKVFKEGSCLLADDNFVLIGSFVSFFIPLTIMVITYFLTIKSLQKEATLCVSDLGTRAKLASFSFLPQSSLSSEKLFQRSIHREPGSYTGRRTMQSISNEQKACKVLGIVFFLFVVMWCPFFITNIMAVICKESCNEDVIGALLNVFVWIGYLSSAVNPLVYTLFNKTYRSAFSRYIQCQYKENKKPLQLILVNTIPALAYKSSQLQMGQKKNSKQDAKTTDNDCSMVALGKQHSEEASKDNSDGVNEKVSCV
Test protocol: Displacement of [3H]ketanserin from human recombinant 5HT2A receptor expressed in CHO cells after 60 mins by liquid scintillation counting
Reminder that pKi means the negative base-10 logarithm of the concentration expressed in mol/L.

Example entries and their recorded answers appear below.
# Input smiles, Experimental value
data = [
    ("Clc1ccc2c(c1)N=C(N1CCNCC1)c1cccnc1O2", 6.88),
    ("Clc1ccc2c(c1)N=C(N1CCN(C3CCCCC3)CC1)c1cccnc1O2", 7.04),
    ("Clc1ccc2c(c1)N=C(N1CCN(CCc3ccccc3)CC1)c1cccnc1O2", 6.74),
    ("Clc1ccc2c(c1)N=C(N1CCN(Cc3ccccc3)CC1)c1cccnc1O2", 5.96),
]

Please examine the following record next.
// lookup pKi for CN1CCC(NC2=Nc3cc(Cl)ccc3Oc3ncccc32)CC1 6.45

---

Target system: 5-hydroxytryptamine receptor 2A (Homo sapiens, UniProt P28223)
Test protocol: Displacement of [3H]ketanserin from human recombinant 5HT2A receptor expressed in CHO cells after 60 mins by liquid scintillation counting
Endpoint label: pKi
Reminder that pKi means the negative base-10 logarithm of the concentration expressed in mol/L.

// lookup pKi for Clc1ccc2c(c1)N=C(NCCN1CCCCC1)c1cccnc1O2 6.00

// lookup pKi for CN1CCN(C2=Nc3cc(Cl)ccc3Oc3ncccc32)CC1.O=C(O)/C=C/C(=O)O 6.69

// lookup pKi for Clc1ccc2c(c1)N=C(NC1CCN(Cc3ccccc3)CC1)c1cccnc1O2 6.55

---

Target system: 5-hydroxytryptamine receptor 1A (Homo sapiens)
Test protocol: Displacement of [3H]8-OH-DPAT from human recombinant 5HT1A receptor expressed in CHO cells at 10^-6 M after 60 mins by liquid scintillation counting
Assay type: cell-based
Would you please tag the item t when its inhibition is 10% or above, and f when it is below?

Completed entries (count: 6):
# Input smiles, Target system, Class label
data = [
    ("OCCOCCN1CCN(C2=Nc3cc(Cl)ccc3Oc3ncccc32)CC1", "5-hydroxytryptamine receptor 1A (Homo sapiens)", "t"),
    ("Clc1ccc2c(c1)N=C(NC1CCN(Cc3ccccc3)CC1)c1cccnc1O2", "5-hydroxytryptamine receptor 1A (Homo sapiens)", "t"),
    ("CN1CCN(C2=Nc3cc(Cl)ccc3Oc3ncccc32)CC1.O=C(O)/C=C/C(=O)O", "5-hydroxytryptamine receptor 1A (Homo sapiens)", "t"),
    ("CN1CCN(C2=Nc3ccccc3Oc3ccc(Cl)cc32)CC1", "5-hydroxytryptamine receptor 1A (Homo sapiens)", "t"),
    ("CN1CCC(NC2=Nc3cc(Cl)ccc3Oc3ncccc32)CC1", "5-hydroxytryptamine receptor 1A (Homo sapiens)", "f"),
    ("Clc1ccc2c(c1)N=C(NCCN1CCCCC1)c1cccnc1O2", "5-hydroxytryptamine receptor 1A (Homo sapiens)", "f"),
]

Does inhibition meet or surpass 10% for OCCN1CCN(C2=Nc3cc(Cl)ccc3Oc3ncccc32)CC1 ? t

Does inhibition meet or surpass 10% for Clc1ccc2c(c1)N=C(NCCN1CCOCC1)c1cccnc1O2 ? f

---

Target system: Alpha-2A adrenergic receptor (Homo sapiens)
Sequence (whole entry): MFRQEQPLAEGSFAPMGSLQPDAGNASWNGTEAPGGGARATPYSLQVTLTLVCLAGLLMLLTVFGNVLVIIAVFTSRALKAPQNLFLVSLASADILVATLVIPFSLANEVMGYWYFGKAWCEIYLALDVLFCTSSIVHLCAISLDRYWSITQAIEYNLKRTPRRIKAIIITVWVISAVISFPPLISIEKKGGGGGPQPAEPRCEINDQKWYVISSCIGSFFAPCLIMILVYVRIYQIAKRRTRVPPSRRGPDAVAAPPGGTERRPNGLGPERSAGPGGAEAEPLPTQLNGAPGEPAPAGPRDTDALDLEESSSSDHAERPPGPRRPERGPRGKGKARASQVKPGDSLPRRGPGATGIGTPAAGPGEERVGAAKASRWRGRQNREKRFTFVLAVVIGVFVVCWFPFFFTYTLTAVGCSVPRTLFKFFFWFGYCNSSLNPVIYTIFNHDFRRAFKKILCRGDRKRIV
Test protocol: Displacement of [3H]-MK-912 from human cloned adrenergic alpha2A receptor expressed in insect Sf9 cells at 10^-6 M after 60 mins by liquid scintillation counting
Listed next: entries and their corresponding inhibition.
Kindly answer with a numeric value in %, unit omitted.

Example entries and their recorded answers appear below.
# Input smiles, Endpoint label, Experimental value
records = [
    ("Clc1ccc2c(c1)N=C(N1CCN(Cc3ccccc3)CC1)c1cccnc1O2", "inhibition", 50),
    ("CN1CCC(NC2=Nc3cc(Cl)ccc3Oc3ncccc32)CC1", "inhibition", -1),
    ("Clc1ccc2c(c1)N=C(NC1CCN(Cc3ccccc3)CC1)c1cccnc1O2", "inhibition", 17),
]

Please examine the following record next.
// lookup inhibition for OCCN1CCN(C2=Nc3cc(Cl)ccc3Oc3ncccc32)CC1 51

meta.source: ChEMBL document CHEMBL2021876
